System: cells, GFP-channel autofluorescence, high-content imaging
Assay: cell-permeable autofluorescent compounds in GFP channel, dose response, artefact control, imaging, high-content imaging (AID 2124)
Inconclusive results are not listed. Calls of active or inactive are those of the source. How the calls were made is not given here; tested in MIN6 cells.
Give one outcome, nothing more. List: active, inactive

Worked set:
Cc1csc(NC(=O)c2sc3nc(-c4cccs4)ccc3c2N)n1: inactive
Cc1cccc(N=Cc2[nH]c3ccc(Br)c(Cl)c3c2O)c1: inactive

Q. Fill in: this test's call for N#CC1=C(N)C(C#N)(C#N)[C@H](c2ccoc2)[C@H]2CN(Cc3ccccc3)CC=C12 is ___
A. inactive

Q. Fill in: this test's call for O=C(/C=C/c1ccc(N2CCC(c3ccccc3)=N2)cc1)c1ccccc1 is ___
A. active

Q. Fill in: this test's call for Oc1ccc(/C=N/Nc2ccnc3cc(Cl)ccc23)c(O)c1 is ___
A. inactive
